# System: TMD8 cells
# testDetails: Cell viability assay (CellTiter-Glo), TMD8 cells
# reportedConditions: TMD8 cells, treatment time 72 h
Answer each item with its documented EMAX (% viable cells).
One number for each entry, in %.

CN1CCN([C@@H]2CCCN(c3cnc(C(N)=O)c(Nc4ccc(C5CCN(c6ccc7c(c6)C(=O)N(C6CCC(=O)NC6=O)C7=O)CC5)cc4)n3)C2)C1=O (stereo partly shown); 39
CN1CCN([C@@H]2CCCN(c3cnc(C(N)=O)c(Nc4ccc(N5CCC6(CCN(Cc7ccc8c(c7)CN([C@@H]7CCC(=O)NC7=O)C8=O)CC6)CC5)cc4)n3)C2)C1=O; 32
Cn1cc(Nc2nc(N3CCC[C@@H](N4CC5(CN(C6CCN(c7ccc8c(c7)C(=O)N([C@H]7CCC(=O)NC7=O)C8=O)CC6)C5)OC4=O)C3)cnc2C(N)=O)cn1; 42

// below: EMAX (% viable cells) requested for another compound
Query string: For CN1CCN([C@@H]2CCCN(c3cnc(C(N)=O)c(Nc4ccc(N5CCN(CC6CCN(c7ccc8c(c7)C(=O)N(C7CCC(=O)NC7=O)C8=O)CC6)CC5)cc4)n3)C2)C1=O (stereo partly shown) , write its EMAX (% viable cells).
Result string: 28
